The values you see were collected from patent US20230416942A1.

Form field: EC50 (one value per entry).
- Assayed target: T1, CD302 (human, UniProt Q8IX05 23-168, limits assumed)
- T1 construct: Recombinant human protein in ELISA
- T1 sequence (looked up): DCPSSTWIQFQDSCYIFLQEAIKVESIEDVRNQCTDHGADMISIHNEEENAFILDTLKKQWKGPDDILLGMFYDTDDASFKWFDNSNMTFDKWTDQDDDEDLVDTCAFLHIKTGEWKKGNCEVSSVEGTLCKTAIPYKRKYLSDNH
- Measurement notes: ELISA, plate-coated recombinant human protein, nanobody-Fc

{"columns": ["Binder", "EC50 [nM]"],
 "data": [
  ["CD302_Nb31 (Fc fusion, Nanobody expressed and tested as Fc fusion (human IgG1); not shown: human IgG1 Fc (vector pCER243)) QVQLQESGGGLVQAGGSLRLSCAASGTIFKSAGMGWYRQAPGKEREFVAGIAPGAITYYADSVKGRFTISRDNAKNTVYLQMNSLKPEDTAVYYCAALVADGRPYRYWGQGTQVTVSS", 1.26],
  ["CD302_Nb30 (Fc fusion, Nanobody expressed and tested as Fc fusion (human IgG1); not shown: human IgG1 Fc (vector pCER243)) QVQLQESGGGLVQAGGSLRLSCAASGSISLATGMGWYRQAPGKEREFVAGISVGTSTYYADSVKGRFTISRDNAKNTVYLQMNSLKPEDTAVYYCAAIAWHPSGARSYLRYWGQGTQVTVSS", 2.21],
  ["CD302_Nb28 (Fc fusion, Nanobody expressed and tested as Fc fusion (human IgG1); not shown: human IgG1 Fc (vector pCER243)) QVQLQESGGGLVQAGGSLRLSCAASGSISGVSGMGWYRQAPGKEREFVAGITTGTSTYYADSVKGRFTISRDNAKNTVYLQMNSLKPEDTAVYYCAAYANYVPSSRLYLRYWGQGTQVTVSS", 0.684],
  ["CD302_Nb35 (Fc fusion, Nanobody expressed and tested as Fc fusion (human IgG1); not shown: human IgG1 Fc (vector pCER243)) QVQLQESGGGLVQAGGSLRLSCAASGTISRVFVMGWYRQAPGKERELVAGIGGGTSTYYADSVKGRFTISRDNAKNTVYLQMNSLKPEDTAVYYCAAILSDRVLFRYWGQGTQVTVSS", 0.654],
  ["CD302_Nb26 (Fc fusion, Nanobody expressed and tested as Fc fusion (human IgG1); not shown: human IgG1 Fc (vector pCER243)) QVQLQESGGGLVQAGGSLRLSCAASGNISFIGAMGWYRQAPGKEREFVAGINVGTNTYYADSVKGRFTISRDNAKNTVYLQMNSLKPEDTAVYYCAAYVFVSRIDLRYLVYWGQGTQVTVSS", 8.5],
  ["CD302_Nb33 (Fc fusion, Nanobody expressed and tested as Fc fusion (human IgG1); not shown: human IgG1 Fc (vector pCER243)) QVQLQESGGGLVQAGGSLRLSCAASGTISIIFAMGWYRQAPGKEREFVAGIGRGTTTYYADSVKGRFTISRDNAKNTVYLQMNSLKPEDTAVYYCAAHVFYDNVVQRHAYWGQGTQVTVSS", 2.26],
  ["CD302_Nb32 (Fc fusion, Nanobody expressed and tested as Fc fusion (human IgG1); not shown: human IgG1 Fc (vector pCER243)) QVQLQESGGGLVQAGGSLRLSCAASGTIFPDSSMGWYRQAPGKEREFVAGITTGANTYYADSVKGRFTISRDNAKNTVYLQMNSLKPEDTAVYYCAAYHVDRAVFRYWGQGTQVTVSS", 0.49]
]}
